studyTarget: T1, full-length human GIPR with an N-terminal FLAG tag, overexpressed on HEK-293T cells (human, UniProt P48546 22-466)
T1 sequence (looked up): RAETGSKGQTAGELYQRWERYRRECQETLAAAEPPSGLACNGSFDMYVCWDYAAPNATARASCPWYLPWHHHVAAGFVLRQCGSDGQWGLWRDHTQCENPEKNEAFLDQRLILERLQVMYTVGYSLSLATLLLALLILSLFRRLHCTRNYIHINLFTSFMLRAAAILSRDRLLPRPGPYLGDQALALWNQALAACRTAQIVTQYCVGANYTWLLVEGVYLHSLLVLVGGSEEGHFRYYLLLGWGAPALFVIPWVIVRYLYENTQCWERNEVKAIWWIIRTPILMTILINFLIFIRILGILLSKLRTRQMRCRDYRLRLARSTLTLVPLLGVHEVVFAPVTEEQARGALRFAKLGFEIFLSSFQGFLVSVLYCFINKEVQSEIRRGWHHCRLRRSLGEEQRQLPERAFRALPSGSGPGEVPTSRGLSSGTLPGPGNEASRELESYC
assayInfo: cell-based or functional assay
Starred links: 1 amine or outer side, 2 acyl side, 3 side chain; linkers in the order of their positions; H or OH if unused. Non-standard residues stand in square brackets, D forms with d. Groups on a side chain read outwards from the residue. No end group written: not given here. *: point of attachment. C18 diacid = O=C(O)CCCCCCCCCCCCCCCCC(=O)*; γGlu = O=C(O)[C@H](CCC(=O)[*:2])N[*:1]; NMeY = CN[C@@H](Cc1ccc(O)cc1)C(=O)O; AEEA = NCCOCCOCC(=O)O; Aib = CC(C)(N)C(=O)O
Human GIPR cAMP EC50, HEK293T overview

[
  {
    "binder": "[NMeY][Aib]EGTFISDYSI[Aib]LDK[Aib]AQ[Aib]K([AEEA-AEEA-γGlu-γGlu-C18 diacid])FVNWLLAQRG-OH [Compound No. 211]",
    "unitsLabel": "pM",
    "Human GIPR cAMP EC50, HEK293T": 0.5
  },
  {
    "binder": "Y[Aib]EGTFISDYSIAMDKK([AEEA-AEEA-γGlu-C18 diacid])HQQDFVNWLLAQKGKKNDWKHNITQ-OH [Compound No. 188]",
    "unitsLabel": "pM",
    "Human GIPR cAMP EC50, HEK293T": 1.9
  },
  {
    "binder": "H-Y[Aib]EGTFISDYSIALDRAAQ[Aib]K([AEEA-AEEA-γGlu-γGlu-C18 diacid])FVEWLLAQRG-OH [Compound No. 206]",
    "unitsLabel": "pM",
    "Human GIPR cAMP EC50, HEK293T": 0.4
  }
]
